Biological target: recombinant form of Glutaminase 1 (GAC) (Homo sapiens)
Sequence (O94925 137-598 isoform O94925-3 limits assumed): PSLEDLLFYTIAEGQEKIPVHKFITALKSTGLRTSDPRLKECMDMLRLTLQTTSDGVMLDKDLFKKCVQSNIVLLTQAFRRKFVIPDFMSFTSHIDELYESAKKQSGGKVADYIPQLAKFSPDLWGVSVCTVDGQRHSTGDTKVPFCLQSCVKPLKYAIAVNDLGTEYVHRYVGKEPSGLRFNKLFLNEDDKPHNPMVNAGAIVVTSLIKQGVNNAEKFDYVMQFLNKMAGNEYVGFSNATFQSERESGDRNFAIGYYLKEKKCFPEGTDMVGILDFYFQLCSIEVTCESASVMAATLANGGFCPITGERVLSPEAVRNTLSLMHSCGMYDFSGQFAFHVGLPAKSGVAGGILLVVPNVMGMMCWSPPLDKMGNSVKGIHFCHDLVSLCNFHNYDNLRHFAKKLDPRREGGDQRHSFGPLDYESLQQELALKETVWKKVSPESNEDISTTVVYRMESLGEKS
Experiment: Recombinant Enzyme Assay - Time Dependence (60 min preincubation)
Format: biochemical
Method: The enzyme/compound mix was sealed with sealing foil (USA Scientific) and allowed to incubate, with mild agitation, for 60 minutes at 20° C. Enzymatic reaction was started with the addition of 50 μL of substrate solution (50 mM Tris-HCl pH 8.0, 0.2 mM EDTA, 150 mM K2HPO4, 0.1 mg/ml BSA, 1 mM DTT, 20 mM L-glutamine, 2 mM NAD^+, and 10 ppm antifoam) and read in a Molecular Devices M5 plate reader at 20° C. The plate reader was configured to read absorbance (λ=340 nm) in kinetic mode for 15 minutes. […]
Measured attribute: IC50 (nM)
Express it in nM; write the number only.

Q: Quickly give me recorded IC50 for `COC(=O)NCC1=CC(CC(=O)Nc2ccc(CCCCc3nnc(NC(=O)Cc4cccc(CNC(=O)OC)c4)s3)nn2)=CCC1`
Result: 4
